Each recorded value in this set is attributed to patent US8426588B2.

# TARGET OF ASSAY: integrin α4β1 (Homo sapiens, UniProt P05556+P13612)
# Construct: cell strain Jurkat (ATCC TIB-152) of human T cells, known to express integrin α4β1; endogenous in cells
# Sequence (P13612 34-1032): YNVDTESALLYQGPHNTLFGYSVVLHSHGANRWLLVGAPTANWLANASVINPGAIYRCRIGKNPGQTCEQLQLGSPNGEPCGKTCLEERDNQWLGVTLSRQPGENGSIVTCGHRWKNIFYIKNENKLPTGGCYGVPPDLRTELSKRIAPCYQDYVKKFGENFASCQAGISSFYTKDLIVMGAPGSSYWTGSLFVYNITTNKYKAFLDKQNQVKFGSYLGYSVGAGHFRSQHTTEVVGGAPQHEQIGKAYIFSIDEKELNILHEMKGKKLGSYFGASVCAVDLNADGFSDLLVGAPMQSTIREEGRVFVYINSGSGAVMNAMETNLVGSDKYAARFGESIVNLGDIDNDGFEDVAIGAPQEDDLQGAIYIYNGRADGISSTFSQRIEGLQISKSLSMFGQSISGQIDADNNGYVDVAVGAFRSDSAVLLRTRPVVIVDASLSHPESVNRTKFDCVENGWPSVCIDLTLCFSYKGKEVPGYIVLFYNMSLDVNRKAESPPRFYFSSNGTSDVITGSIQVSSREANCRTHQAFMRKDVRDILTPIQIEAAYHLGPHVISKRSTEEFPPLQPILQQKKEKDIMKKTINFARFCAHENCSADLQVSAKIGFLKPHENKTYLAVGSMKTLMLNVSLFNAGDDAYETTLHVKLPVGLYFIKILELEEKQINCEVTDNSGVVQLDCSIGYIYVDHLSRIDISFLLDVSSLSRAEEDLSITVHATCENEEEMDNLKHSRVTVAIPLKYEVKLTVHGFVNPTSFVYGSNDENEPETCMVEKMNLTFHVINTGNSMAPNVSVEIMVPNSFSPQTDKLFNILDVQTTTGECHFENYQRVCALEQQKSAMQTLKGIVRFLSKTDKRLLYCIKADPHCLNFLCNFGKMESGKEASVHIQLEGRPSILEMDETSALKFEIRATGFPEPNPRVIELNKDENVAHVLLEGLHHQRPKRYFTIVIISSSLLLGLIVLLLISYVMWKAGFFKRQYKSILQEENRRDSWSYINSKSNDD
# Sequence (P05556 21-798): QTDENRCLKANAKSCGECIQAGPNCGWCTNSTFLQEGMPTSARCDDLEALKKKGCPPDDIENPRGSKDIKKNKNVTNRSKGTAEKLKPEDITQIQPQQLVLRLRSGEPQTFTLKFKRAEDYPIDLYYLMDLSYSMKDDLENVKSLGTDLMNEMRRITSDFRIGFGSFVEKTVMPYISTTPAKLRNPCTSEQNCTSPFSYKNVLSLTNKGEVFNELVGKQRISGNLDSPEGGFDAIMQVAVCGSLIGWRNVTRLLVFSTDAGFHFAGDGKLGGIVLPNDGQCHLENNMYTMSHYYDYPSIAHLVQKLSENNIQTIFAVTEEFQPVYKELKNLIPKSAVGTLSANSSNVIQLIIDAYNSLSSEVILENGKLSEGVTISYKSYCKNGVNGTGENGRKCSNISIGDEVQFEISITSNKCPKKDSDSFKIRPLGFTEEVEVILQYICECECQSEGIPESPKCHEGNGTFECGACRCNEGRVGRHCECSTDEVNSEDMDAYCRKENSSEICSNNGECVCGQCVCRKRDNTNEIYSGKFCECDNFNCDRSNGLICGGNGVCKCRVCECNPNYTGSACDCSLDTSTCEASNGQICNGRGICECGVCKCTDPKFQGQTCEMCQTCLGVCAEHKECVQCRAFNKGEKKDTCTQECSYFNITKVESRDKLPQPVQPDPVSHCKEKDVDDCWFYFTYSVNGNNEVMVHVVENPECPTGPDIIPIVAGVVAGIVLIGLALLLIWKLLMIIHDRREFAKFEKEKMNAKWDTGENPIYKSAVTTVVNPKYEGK
# TEST DESCRIPTION: VCAM antagonist activity (VCAM-1/α4β1 binding assay), Jurkat cells binding to VCAM-1
# CONDITION DETAILS: Jurkat human T cells binding to recombinant human VCAM-1; read-out: VCAM antagonistic activity (IC50) α4β1
pIC50: −log10 of the molar value.

SMILES RECORD	pIC50
CCN(CC)c1ccc2c(c1)c(=O)n(-c1ccc(C[C@H](NC(=O)c3c(Cl)cccc3Cl)C(=O)O)cc1)c(=O)n2C	7.06
O=C(N[C@@H](Cc1ccc(-n2c(=O)oc3c(ccc4ccccc43)c2=O)cc1)C(=O)O)c1c(Cl)cccc1Cl	5.67
O=C(N[C@@H](Cc1ccc(-n2c(=O)[nH]c3ccccc3c2=O)cc1)C(=O)O)c1c(Cl)cccc1Cl	6.62
COc1ccc2[nH]c(=O)n(-c3ccc(C[C@H](NC(=O)c4c(Cl)cccc4Cl)C(=O)O)cc3)c(=O)c2c1	5.74

---

# TARGET OF ASSAY: integrin α4β7 (Homo sapiens, UniProt P13612+P26010)
# Construct: lymphoma cell strain RPMI-8866 of human B cells, known to express integrin α4β7; endogenous in cells
# Sequence (P13612 34-1032): as the sequence (P13612 34-1032) above
# Sequence (P26010 20-798): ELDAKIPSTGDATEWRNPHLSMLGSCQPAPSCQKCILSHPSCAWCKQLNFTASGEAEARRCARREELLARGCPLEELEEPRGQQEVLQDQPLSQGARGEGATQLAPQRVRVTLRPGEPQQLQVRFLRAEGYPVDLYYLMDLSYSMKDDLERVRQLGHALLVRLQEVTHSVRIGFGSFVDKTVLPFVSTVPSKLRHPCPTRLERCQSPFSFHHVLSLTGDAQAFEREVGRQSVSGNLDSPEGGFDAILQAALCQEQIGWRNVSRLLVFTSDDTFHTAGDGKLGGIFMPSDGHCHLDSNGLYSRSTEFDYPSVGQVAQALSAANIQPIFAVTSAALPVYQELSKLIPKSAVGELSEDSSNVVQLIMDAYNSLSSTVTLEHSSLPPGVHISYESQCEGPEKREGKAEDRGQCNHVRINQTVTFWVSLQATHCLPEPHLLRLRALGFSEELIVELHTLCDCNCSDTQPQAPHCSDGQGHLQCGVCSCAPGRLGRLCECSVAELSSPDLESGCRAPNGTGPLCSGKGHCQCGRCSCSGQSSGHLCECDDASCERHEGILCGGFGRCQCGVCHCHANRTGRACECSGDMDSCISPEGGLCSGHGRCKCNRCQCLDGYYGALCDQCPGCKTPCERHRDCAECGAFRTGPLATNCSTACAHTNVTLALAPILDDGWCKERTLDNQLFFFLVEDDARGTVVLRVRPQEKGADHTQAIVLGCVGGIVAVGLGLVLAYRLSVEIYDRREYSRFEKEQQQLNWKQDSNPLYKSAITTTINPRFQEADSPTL
# TEST DESCRIPTION: VCAM antagonistic activity (VCAM-1/α4β7 binding assay), RPMI-8866 cells binding to VCAM-1
# CONDITION DETAILS: RPMI-8866 human B lymphoma cells binding to recombinant human VCAM-1; binding buffer with 4 mM MnCl2
pIC50: −log10 of the molar value.
Recorded pIC50, one value per entry.

COMPOUND	pIC50
Cn1c(=O)n(-c2ccc(C[C@H](NC(=O)c3c(Cl)cccc3Cl)C(=O)O)cc2)c(=O)c2ccc(F)cc21 [Example 72]	8.59
CCSc1nc2ccccc2c(=O)n1-c1ccc(C[C@H](NC(=O)c2c(Cl)cccc2Cl)C(=O)O)cc1 [Example 17]	7.37
COc1ccc2c(c1)c(=O)n(-c1ccc(C[C@H](NC(=O)c3c(Cl)cccc3Cl)C(=O)O)cc1)c(=O)n2C [Example 184]	8.48
CSc1nc2ccccc2c(=O)n1-c1ccc(C[C@H](NC(=O)c2c(Cl)cccc2Cl)C(=O)O)cc1 [Example 18]	7.64
Cn1c(=O)n(-c2ccc(C[C@H](NC(=O)c3c(Cl)cccc3Cl)C(=O)O)cc2)c(=O)c2cc(Cl)cc(Cl)c21 [Example 71]	7.96
COc1ccc(C(=O)CSc2nc3ccccc3c(=O)n2-c2ccc(C[C@H](NC(=O)c3c(Cl)cccc3Cl)C(=O)O)cc2)cc1 [Example 23]	7.74
Cn1c(=O)n(-c2ccc(C[C@H](NC(=O)c3c(Cl)cccc3Cl)C(=O)O)cc2)c(=O)c2cc(F)ccc21 [Example 189]	8.96

---

# TARGET OF ASSAY: integrin α4β1 (Homo sapiens, UniProt P05556+P13612)
# Construct: cell strain Jurkat (ATCC TIB-152) of human T cells, known to express integrin α4β1; endogenous in cells
# TEST DESCRIPTION: VCAM antagonist activity (VCAM-1/α4β1 binding assay), Jurkat cells binding to VCAM-1
# CONDITION DETAILS: Jurkat human T cells binding to recombinant human VCAM-1; read-out: VCAM antagonistic activity (IC50) α4β1
Recorded IC50, one value per entry.
MEASURED ENDPOINT: IC50 (nM)

SMILES RECORD	RECORDED NUMBER
Cn1c(=O)n(-c2ccc(C[C@H](NC(=O)c3c(Cl)cccc3Cl)C(=O)O)cc2)c(=O)c2ccc(F)cc21	27
Cn1c(=O)n(-c2ccc(C[C@H](NC(=O)c3c(Cl)cccc3Cl)C(=O)O)cc2)c(=O)c2cc(Cl)ccc21	25
Cn1c(=O)n(-c2ccc(C[C@H](NC(=O)c3c(Cl)cccc3Cl)C(=O)O)cc2)c(=O)c2cc([N+](=O)[O-])ccc21	28
O=C(N[C@@H](Cc1ccc(-n2c(=O)c3cc([N+](=O)[O-])ccc3n(C3CCC3)c2=O)cc1)C(=O)O)c1c(Cl)cccc1Cl	540
COc1nc2ccccc2c(=O)n1-c1ccc(C[C@H](NC(=O)c2c(Cl)cccc2Cl)C(=O)O)cc1	490
CN1C(=O)N(c2ccc(C[C@H](NC(=O)c3c(Cl)cccc3Cl)C(=O)O)cc2)Cc2ccccc21	107
CCOc1nc2cc(F)ccc2c(=O)n1-c1ccc(C[C@H](NC(=O)c2c(Cl)cccc2Cl)C(=O)O)cc1	960
